Hi there, I'd appreciate the recorded abundance fitness for every entry that follows.
B1: POU domain, class 3, transcription factor 2, residues 262 to 338; numbered along this chain, P20265 (parent)
chain: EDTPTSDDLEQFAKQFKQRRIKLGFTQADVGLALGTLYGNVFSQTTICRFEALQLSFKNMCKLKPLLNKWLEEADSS

Variants of: B1
Procedure details: abundance fitness (aPCA) (normalised: wild type 0, dead -1); higher = more abundant; growth selection in yeast, the domain comes from the species named
Experimental setup: Homo sapiens

Examples with their reported abundance fitness follow.
(Q) Specify reported abundance fitness for the variant shown: E51M
(A) -1

(Q) Specify reported abundance fitness for the variant shown: T36H
(A) 0.015

(Q) Specify reported abundance fitness for the variant shown: I21T
(A) -0.179

(Q) Specify reported abundance fitness for the variant shown: E72V
(A) 0.017

(Q) Specify reported abundance fitness for the variant shown: L71F
(A) -0.699

(Q) Specify reported abundance fitness for the variant shown: L55I
(A) -0.364

(Q) Specify reported abundance fitness for the variant shown: L66C
(A) -0.239

(Q) Specify reported abundance fitness for the variant shown: K22E
(A) 0.057

Next variant, please.
(Q) Specify reported abundance fitness for the variant shown: L37F
(A) -0.053

Each recorded value in this set is attributed to the Human Domainome abundance scans (Beltran et al. 2025).
